Each recorded value in this set is attributed to patent US8664387B2.

- targetOfAssay: acetylcholine muscarinic M1 receptor (Homo sapiens)
- Construct: geneticin selection)
- Sequence (P11229 1-460): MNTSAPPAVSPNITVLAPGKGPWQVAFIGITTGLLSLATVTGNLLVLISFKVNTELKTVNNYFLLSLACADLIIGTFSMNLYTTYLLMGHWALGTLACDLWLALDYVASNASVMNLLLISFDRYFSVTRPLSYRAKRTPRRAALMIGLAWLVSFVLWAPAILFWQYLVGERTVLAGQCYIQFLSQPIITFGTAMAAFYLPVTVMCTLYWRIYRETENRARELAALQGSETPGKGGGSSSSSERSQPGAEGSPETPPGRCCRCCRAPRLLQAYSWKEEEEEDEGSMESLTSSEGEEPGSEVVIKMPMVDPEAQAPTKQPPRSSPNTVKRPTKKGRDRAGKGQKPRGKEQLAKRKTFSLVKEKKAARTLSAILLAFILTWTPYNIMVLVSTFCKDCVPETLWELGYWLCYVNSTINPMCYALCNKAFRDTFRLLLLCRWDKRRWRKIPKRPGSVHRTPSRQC
- procedureSummary: muscarinic FLIPR calcium assay, M1 positive allosteric modulation
- conditions: CHOnfat/hM1 cells, FLIPR intracellular Ca2+, 4 min preincubation, then EC20 acetylcholine (3 nM final); read-out: IP Value (inflection point)
pEC50: −log10 of the molar value.
attributeMeasured: pEC50

Solved cases (5 shown):
>  <compound>
O=c1c2cc(Cc3ccc(Cl)nc3)c3cnccc3c2ncn1[C@H]1CCOC[C@@H]1O

>  <targetOfAssay>
acetylcholine muscarinic M1 receptor (Homo sapiens)

>  <pEC50>
6.75

$$$$
>  <compound>
O=c1c2cc(Cc3ccc(Cl)nc3)c3cnccc3c2ncn1[C@H]1CCCC[C@@H]1O

>  <targetOfAssay>
acetylcholine muscarinic M1 receptor (Homo sapiens)

>  <pEC50>
7.42

$$$$
>  <compound>
O=c1c2cc(Cc3ccc(-c4cnccn4)nc3)c3cnccc3c2ncn1[C@H]1CCCC[C@@H]1O

>  <targetOfAssay>
acetylcholine muscarinic M1 receptor (Homo sapiens)

>  <pEC50>
7.19

$$$$
>  <compound>
Cn1cc(-c2ccc(Cc3cc4c(=O)n([C@H]5CCCC[C@@H]5O)cnc4c4ccncc34)cn2)cn1

>  <targetOfAssay>
acetylcholine muscarinic M1 receptor (Homo sapiens)

>  <pEC50>
8.22

$$$$
>  <compound>
CC(O)c1ccc(Cc2cc3c(=O)n([C@H]4CCCC[C@@H]4O)cnc3c3ccncc23)cc1 (stereo partly shown)

>  <targetOfAssay>
acetylcholine muscarinic M1 receptor (Homo sapiens)

>  <pEC50>
7.04

$$$$

I. O=Cc1ccc(Cc2cc3c(=O)n([C@H]4CCCC[C@@H]4O)cnc3c3ccncc23)cc1
II. CSc1ccc(Cc2cc3c(=O)n([C@H]4CCCC[C@@H]4O)cnc3c3ccncc23)cn1
Of I and II , which one carries the higher reported pEC50? Answer format: the label of the selected item.
I
(I: 7.44, II: 7.15)

I. Cc1ccc(Cc2cc3c(=O)n([C@H]4CCCC[C@@H]4O)cnc3c3ccncc23)cn1
II. O=c1c2cc(Cc3ccc(N4CCOCC4)cc3)c3cnccc3c2ncn1[C@H]1CCCC[C@@H]1O
Could you tell me which of I and II has the lower pEC50 reading? Answer format: the label of the selected item.
II
(II: 7.04, I: 7.39)

A. O=c1c2cc(Cc3ccc(-n4cccn4)nc3)c3ncccc3c2ncn1[C@H]1CCCC[C@@H]1O
B. CCC(O)c1ccc(Cc2cc3c(=O)n([C@H]4CCCC[C@@H]4O)cnc3c3ccncc23)cc1 (stereo partly shown)
C. Cc1cc(Cc2cc3c(=O)n([C@H]4COCC[C@@H]4O)cnc3c3cccnc23)ccn1
Arrange the 3 compounds by rising pEC50, starting with the smallest. Reply: labels, ordered per the request.
C, B, A
(C: 6.07, B: 6.89, A: 7.54)
